Origin of the recorded values: paper PMC11048033

Catalogue of % cell viability values
System: A549 (human lung adenocarcinoma) cell line
protocol description: MTT anticancer assay, A549
Format: cell-based
condition notes: A549, 12.5 µg/ml
# number only, unit % dropped from output

// below: answered compounds
Input: Please look up its % cell viability: `NS(=O)(=O)c1ccc(-n2nc(C(=O)NN=Cc3cccc(Oc4ccccc4)c3)cc2-c2ccc(Cl)cc2)cc1`
Output: 86.16

Input: Please look up its % cell viability: `Cc1cc(C=NNC(=O)c2cc(-c3ccc(Br)cc3)n(-c3ccc(S(N)(=O)=O)cc3)n2)cc(C)c1OCc1ccccc1`
Output: 92.32

Input: Please look up its % cell viability: `NS(=O)(=O)c1ccc(-n2nc(C(=O)NN=Cc3ccc(Cl)cc3O)cc2-c2ccc(Br)cc2)cc1`
Output: 84.82

New cases:
Input: Please look up its % cell viability: `COc1ccc(-c2cc(C(=O)NN=Cc3ccc(Oc4ccccc4)cc3)nn2-c2ccc(S(N)(=O)=O)cc2)cc1`
Output: 81.83

---

System: HEPG2 (human liver) cell line
protocol description: MTT anticancer assay, HepG2
Type: cell-based
condition notes: HepG2, 100 µg/ml
measured parameter: % cell viability

// below: answered compounds
Input: Please look up its % cell viability: Cc1cc(C=NNC(=O)c2cc(-c3ccc(Br)cc3)n(-c3ccc(S(N)(=O)=O)cc3)n2)cc(C)c1OCc1ccccc1 [Compound T5]
Output: 39.32%

Input: Please look up its % cell viability: NS(=O)(=O)c1ccc(-n2nc(C(=O)NN=Cc3cccc(Oc4ccccc4)c3)cc2-c2ccc(Cl)cc2)cc1 [Compound T3]
Output: 54.76%

Input: Please look up its % cell viability: COc1ccc(-c2cc(C(=O)NN=Cc3ccc(Oc4ccccc4)cc3)nn2-c2ccc(S(N)(=O)=O)cc2)cc1 [Compound T2]
Output: 64.39%

New cases:
Input: Please look up its % cell viability: NS(=O)(=O)c1ccc(-n2nc(C(=O)NN=Cc3ccc(Cl)cc3O)cc2-c2ccc(Br)cc2)cc1 [Compound T9]
Output: 54.42%

---

Test system: HEPG2 (human liver) cell line
protocol description: MTT anticancer assay, HepG2
Assay type: cell-based
condition notes: HepG2, 25 µg/ml
measured parameter: % cell viability (%)
# number only, unit % dropped from output

// below: answered molecules
Input: # query: % cell viability | item Cc1cc(C=NNC(=O)c2cc(-c3ccc(Br)cc3)n(-c3ccc(S(N)(=O)=O)cc3)n2)cc(C)c1OCc1ccccc1 [Compound T5] | system: HEPG2 (human liver) cell line
Output: 73.42

Input: # query: % cell viability | item NS(=O)(=O)c1ccc(-n2nc(C(=O)NN=Cc3cccc(Oc4ccccc4)c3)cc2-c2ccc(Cl)cc2)cc1 [Compound T3] | system: HEPG2 (human liver) cell line
Output: 73.65

Input: # query: % cell viability | item NS(=O)(=O)c1ccc(-n2nc(C(=O)NN=Cc3ccc(Cl)cc3O)cc2-c2ccc(Br)cc2)cc1 [Compound T9] | system: HEPG2 (human liver) cell line
Output: 79.30

New cases:
Input: # query: % cell viability | item COc1ccc(-c2cc(C(=O)NN=Cc3ccc(Oc4ccccc4)cc3)nn2-c2ccc(S(N)(=O)=O)cc2)cc1 [Compound T2] | system: HEPG2 (human liver) cell line
Output: 71.82

---

Tested on: HEPG2 (human liver) cell line
protocol description: MTT anticancer assay, HepG2
Format: cell-based
condition notes: HepG2, 50 µg/ml
measured parameter: % cell viability (%)
# number only, unit % dropped from output

Input: # query: % cell viability | item `Cc1cc(C=NNC(=O)c2cc(-c3ccc(Br)cc3)n(-c3ccc(S(N)(=O)=O)cc3)n2)cc(C)c1OCc1ccccc1` | system: HEPG2 (human liver) cell line
Output: 54.76

Input: # query: % cell viability | item `COc1ccc(-c2cc(C(=O)NN=Cc3ccc(Oc4ccccc4)cc3)nn2-c2ccc(S(N)(=O)=O)cc2)cc1` | system: HEPG2 (human liver) cell line
Output: 67.10

Input: # query: % cell viability | item `NS(=O)(=O)c1ccc(-n2nc(C(=O)NN=Cc3cccc(Oc4ccccc4)c3)cc2-c2ccc(Cl)cc2)cc1` | system: HEPG2 (human liver) cell line
Output: 73.62

New cases:
Input: # query: % cell viability | item `NS(=O)(=O)c1ccc(-n2nc(C(=O)NN=Cc3ccc(Cl)cc3O)cc2-c2ccc(Br)cc2)cc1` | system: HEPG2 (human liver) cell line
Output: 67.24
